system: SEM cells; experiment: AUC of viability dose-response curve (% viability x log10 dose units); higher = less sensitive; details: HPLM + 10% dialyzed FBS; 48 h
observedProperty: AUC of viability dose-response curve

| compound | observedProperty | resultNumber |
| --- | --- | --- |
| O=C(O)c1ccc2c(c1)nc(Nc1cccc(Cl)c1)c1ccncc12 | AUC of viability dose-response curve | 421 |
| C[C@]12CC[C@@H]3c4ccc(O)cc4C[C@@H](CCCCCCCCC[S+]([O-])CCCC(F)(F)C(F)(F)F)[C@H]3[C@@H]1CC[C@@H]2O (some centres undefined) | AUC of viability dose-response curve | 475 |
| Cc1cnc(NC(=O)Nc2cc(Br)c(C)cc2OC[C@@H]2CNCCO2)cn1 | AUC of viability dose-response curve | 328 |
| OC(Cn1cncn1)(Cn1cncn1)c1ccc(F)cc1F | AUC of viability dose-response curve | 463 |

* * *

Reported AUC of viability dose-response curve values follow for various molecules
test system: P12-Ichikawa; test: AUC of viability dose-response curve (% viability x log10 dose units); higher = less sensitive; details: RPMI 5 mM glucose + 10% FBS; 48 h

| molecule | AUC of viability dose-response curve |
| --- | --- |
| Cc1cnc(-c2cc(N3CCN(C(=O)CC[S+](C)(=O)[O-])CC3)ncc2Cl)c(C)c1 | 475 |
| C[N]1C=C(C2=C1C=CC=C2)\C3=C(\C(=O)NC3=O)C4=C5CC(CN)CC[N]5C6=C4C=CC=C6 (centres undefined) | 440 |
| O=C1c2c(O)ccc(O)c2C(=O)c2c(NCCNCCO)ccc(NCCNCCO)c21 | 280 |
| FC1=CC=C(SC/2=N/N3\C=N/C(=O)/C(=C3/C=C2)C4=C(Cl)C=CC=C4Cl)C(=C1)F | 436 |

* * *

system: NOMO1; experiment: cell viability relative to DMSO control; higher = less cytotoxic; conditions: RPMI 5 mM glucose + 10% FBS; 48 h; 15.4 µM
Mark True for cell viability under 90%, False if at or over.

| compound | category |
| --- | --- |
| C#C[C@]1(O)CC[C@H]2[C@@H]3CCc4cc(O)ccc4[C@H]3CC[C@@]21C | True |
| C[C@@H]\1CC(=O)N\N=C1C2=CC=C(NN=C(C#N)C#N)C=C2 | True |
| COc1cc2c(cc1OC)CC(=O)N(CCCN(C)C[C@H]1Cc3cc(OC)c(OC)cc31)CC2.Cl | False |
| CN1\C(=C(\O)C2=CC=CC=C2[S+]1([O-])=O)C(=O)NC3=NC=C(C)S3 | False |
| C=CC(=O)N1CCC[C@@H](n2nc(-c3ccc(Oc4ccccc4)cc3)c3c(N)ncnc32)C1 | False |
| COc1cc2ncnc(Nc3cc(Br)c(O)c(Br)c3)c2cc1OC | False |
| N[C@H](CSC(c1ccccc1)(c1ccccc1)c1ccccc1)C(=O)O | False |
| C[C@]1(c2nc3c(C(N)=O)cccc3[nH]2)CCCN1 | True |
| CNC[C@H](O)c1ccc(O)c(O)c1 | True |
| CC(C)CC(=O)N[C@H](C(=O)N[C@H](C(=O)N[C@@H](CC(C)C)[C@@H](O)CC(=O)N[C@@H](C)C(=O)N[C@@H](CC(C)C)[C@@H](O)CC(=O)O)C(C)C)C(C)C | False |
| C[S+]([O-])(=O)C1=CC=C(C=C1)C/2=C(/C(=O)OC2)C3=CC=CC=C3 | False |
| O=C(Nc1ccccc1-c1cn2c(CN3CCNCC3)csc2n1)c1cnc2ccccc2n1 | True |
| CNC1CCC(N(Cc2cccc(-c3ccncc3)c2)C(=O)c2sc3c(F)ccc(F)c3c2Cl)CC1 (stereo not drawn) | False |

* * *

tested on: NOMO1; assay: cell viability relative to DMSO control; higher = less cytotoxic; settings: RPMI 5 mM glucose + 10% dialyzed FBS; 48 h; 5.12 µM
observedProperty: cell viability

| compound | testedSystem | result |
| --- | --- | --- |
| O=C(O[C@H]1C[C@H]2CC[C@@H](C1)[N+]21CCCC1)C(O)(c1ccccc1)c1ccccc1.[Cl-] | NOMO1 | 111% |
| CN(C)C1=CC=C(C=C1)C(C2=CC=C(C=C2)N(C)C)=C/3\C=C/C(/C=C3)=[N+](C)C | NOMO1 | 5.09% |
| O=C(Nc1c(Cl)cncc1Cl)c1ccc(OC(F)F)c(OCC2CC2)c1 | NOMO1 | 97.8% |
| COc1cc2ncnc(Nc3ccc(F)c(Cl)c3)c2cc1NC(=O)/C=C/CN1CCCCC1 | NOMO1 | 78.3% |
| C[S+]([O-])(=O)C1=CC=C(C=C1)C/2=C(/C(=O)OC2)C3=CC=CC=C3 | NOMO1 | 108% |
| COc1ccc(C(C)=O)c(O)c1 | NOMO1 | 59.9% |
| COc1cc2c(cc1OC)CC(=O)N(CCCN(C)C[C@H]1Cc3cc(OC)c(OC)cc31)CC2.Cl | NOMO1 | 110% |
| C/C=C1\C2C=C(C)CC1(N)c1ccc(=O)[nH]c1C2 (stereo not given) | NOMO1 | 95% |
| CC1(C)O[C@@H]2C[C@H]3[C@@H]4CCC5=CC(=O)C=C[C@]5(C)[C@H]4[C@@H](O)C[C@]3(C)[C@]2(C(=O)CO)O1 | NOMO1 | 104% |
| O=C(Nc1ccccc1-c1cn2c(CN3CCNCC3)csc2n1)c1cnc2ccccc2n1 | NOMO1 | 79.4% |
| Cc1c(C(=O)NN2CCCCC2)nn(-c2ccc(Cl)cc2Cl)c1-c1ccc(Cl)cc1 | NOMO1 | 32.8% |
| CC(C)NC[C@@H](C(=O)N1CCN(c2ncnc3c2[C@H](C)C[C@H]3O)CC1)c1ccc(Cl)cc1 | NOMO1 | 81.6% |
| OC[C@H]1OCC(O1)[N@@]2C=CC(N)=NC2=O (stereo not given in full) | NOMO1 | 120% |
| CC(=O)N[C@H]1[C@H](O[C@@H]2c3ccc(c(Cl)c3)Oc3cc4cc(c3O[C@@H]3O[C@H](CO)[C@@H](O)[C@H](O)[C@H]3NC(=O)CCCCCCCC(C)C)Oc3ccc(cc3Cl)C[C@H]3NC(=O)[C@H](N)c5ccc(O)c(c5)Oc5cc(O)cc(c5)[C@H](NC3=O)C(=O)N[C@H]4C(=O)N[C@H]3C(=O)N[C@@H]2C(=O)N[C@@H](C(=O)O)c2cc(O)cc(O[C@H]4O[C@H](CO)[C@@H](O)[C@H](O)[C@@H]4O)c2-c2cc3ccc2O)O[C@H](CO)[C@@H](O)[C@@H]1O | NOMO1 | 157% |
| CC(C)C(=O)Oc1ccc(CO)cc1[C@H](CCN(C(C)C)C(C)C)c1ccccc1 | NOMO1 | 77.4% |
| C[S+](=O)([O-])N1CCc2c(-c3cnc(N)nc3)nc(N3CCOCC3)nc21 | NOMO1 | 73.7% |
| S=P(N1CC1)(N1CC1)N1CC1 | NOMO1 | 95.5% |
| CC(C)=CC[C@@H](O)C/1=C/C(=O)C2=C(O)C=CC(=C2C1=O)O | NOMO1 | 24.5% |
| COc1ccc(-c2ccc3c(N4CCOC[C@@H]4C)nc(N4CCOC[C@@H]4C)nc3n2)cc1CO | NOMO1 | 57.4% |
| CN1CCN(c2ccc([N+](=O)[O-])c3no[n+]([O-])c23)CC1 | NOMO1 | 86.6% |
| N[C@H](CSC(c1ccccc1)(c1ccccc1)c1ccccc1)C(=O)O | NOMO1 | 108% |
| COc1ncc(-c2ccc3nccc(-c4ccnnc4)c3c2)cc1N[S+](=O)([O-])c1ccc(F)cc1F | NOMO1 | 38.1% |
| C[C@]1(c2nc3c(C(N)=O)cccc3[nH]2)CCCN1 | NOMO1 | 73.1% |
| CCn1c(-c2nonc2N)nc2cnc(Oc3cccc(NC(=O)c4ccc(OCCN5CCOCC5)cc4)c3)cc21 | NOMO1 | 79.1% |
| CC/1=C(/N2[C@H](SC1)[C@H](NC(=O)[C@H](N)\C3=C\C\C=C/C3)C2=O)C(O)=O | NOMO1 | 126% |

* * *

Entries and their cell viability values follow.
tested on: SEM cells; experiment: cell viability relative to DMSO control; higher = less cytotoxic; details: RPMI 5 mM glucose + 10% dialyzed FBS; 48 h; 0.00702 µM
observedProperty: cell viability (%)

| compound | testedSystem | resultNumber |
| --- | --- | --- |
| FC1=CC=C(SC/2=N/N3\C=N/C(=O)/C(=C3/C=C2)C4=C(Cl)C=CC=C4Cl)C(=C1)F | SEM cells | 95.7 |
| CCOC(=O)\C1=C(/C)N\C2=C(C1C3=CC=C(C=C3)C4=CC=CC=C4)\C(=O)CC(C)(C)C2 (stereo not given) | SEM cells | 111 |
| FC(F)c1nc2ccccc2n1-c1nc(N2CCOCC2)nc(N2CCOCC2)n1 | SEM cells | 71.9 |
| COc1cc2ncnc(Nc3cc(Br)c(O)c(Br)c3)c2cc1OC | SEM cells | 110 |
| CC(C)C(=O)Nc1ccc([N+](=O)[O-])c(C(F)(F)F)c1 | SEM cells | 133 |
| C[C@@H]1CC[C@H]2[C@@H](C)C(=O)O[C@@H]3O[C@@]4(C)CC[C@@H]1[C@]32OO4 | SEM cells | 120 |
| Cc1cccc(Nc2nc(-c3ccncc3)cs2)c1 | SEM cells | 84 |
| Cc1cn(-c2cc(NC(=O)c3ccc(C)c(Nc4nccc(-c5cccnc5)n4)c3)cc(C(F)(F)F)c2)cn1 | SEM cells | 104 |
| O=C(Nc1ccc(F)c(C(F)(F)F)c1)Nc1nnc(-c2ccncc2)s1 | SEM cells | 124 |
| CC/1=C(/N2[C@H](SC1)[C@H](NC(=O)[C@H](N)\C3=C\C\C=C/C3)C2=O)C(O)=O | SEM cells | 98 |
| CNc1nccc(-c2cccnc2Oc2cc(C(=O)Nc3cccc(C(F)(F)F)c3)ccc2C)n1 | SEM cells | 103 |
| COCCCN1CCC(NC(=O)c2cc(Cl)c(N)c3c2OCC3)CC1 | SEM cells | 127 |
| CC1(C)O[C@@H]2C[C@H]3[C@@H]4CCC5=CC(=O)C=C[C@]5(C)[C@H]4[C@@H](O)C[C@]3(C)[C@]2(C(=O)CO)O1 | SEM cells | 82.4 |
| O=C1c2c(O)ccc(O)c2C(=O)c2c(NCCNCCO)ccc(NCCNCCO)c21 | SEM cells | 96.4 |
| Nc1ncnc2c1c(-c1cnc3[nH]ccc3c1)nn2C1CCCC1 | SEM cells | 125 |
| CCN1\C=C(\C(O)=O)C(=O)C2=CC=C(C)N=C12 | SEM cells | 103 |
| CN1C[C@H]2c3ccccc3Oc3ccc(Cl)cc3[C@@H]2C1 | SEM cells | 76.6 |
| O=C(Nc1c(Cl)cncc1Cl)c1ccc(OC(F)F)c(OCC2CC2)c1 | SEM cells | 102 |
| NC\1=N\C(=O)N(\C=C1)[C@@H]2O[C@H](CO)[C@@H](O)[C@H]2O | SEM cells | 125 |
| COc1cc(OC)c(/C=C/[S+](=O)([O-])Cc2ccc(OC)c(NCC(=O)[O][Na])c2)c(OC)c1 | SEM cells | 122 |
